testedOn: T1, His-tagged CEACAM1 (human, UniProt P13688 35-428)
T1 construct: 45 kDa SPR analyte; also called CEACAM1-HIS; CEACAM1 analyte
T1 sequence: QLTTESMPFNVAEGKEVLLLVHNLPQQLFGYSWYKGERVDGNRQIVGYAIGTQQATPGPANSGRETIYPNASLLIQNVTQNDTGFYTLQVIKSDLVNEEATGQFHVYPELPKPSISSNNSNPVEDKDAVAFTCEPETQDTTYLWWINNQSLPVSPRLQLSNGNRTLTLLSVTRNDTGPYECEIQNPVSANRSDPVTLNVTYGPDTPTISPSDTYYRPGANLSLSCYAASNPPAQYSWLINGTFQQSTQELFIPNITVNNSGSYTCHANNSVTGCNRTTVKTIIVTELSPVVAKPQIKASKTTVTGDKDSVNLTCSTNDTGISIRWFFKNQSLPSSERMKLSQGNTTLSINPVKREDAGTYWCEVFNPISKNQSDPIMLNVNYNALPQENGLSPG
assayComment: SPR single-cycle, supernatant IgG captured
Mark 1 (yes) for kon under 90000 M⁻¹ s⁻¹, 0 (no) if at or over.

binder: CP08H03/Vκ8 S29A (antibody, IgG4, V domains shown, IgG4 (S241P), kappa; also called CP08_H03/Parent VL; CP08_H03/Parental) VH: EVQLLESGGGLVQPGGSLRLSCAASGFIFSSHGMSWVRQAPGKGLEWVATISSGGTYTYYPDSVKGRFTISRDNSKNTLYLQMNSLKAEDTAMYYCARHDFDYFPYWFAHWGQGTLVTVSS VL: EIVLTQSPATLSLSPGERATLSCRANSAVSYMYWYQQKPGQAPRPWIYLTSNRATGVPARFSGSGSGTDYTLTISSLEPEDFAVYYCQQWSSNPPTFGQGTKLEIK
classLabel: 0 (no)

binder: CP09F03/Vκ8 S29A (antibody, IgG4, V domains shown, IgG4 (S241P), kappa) VH: EVQLLESGGGLVQPGGSLRLSCAASGFTFNNHGMSWVRQAPGKGLEWVATISSGGTYTYYPDSVKGRFTISRDNSKNTLYLQMNSLKAEDTAMYYCARHDFDYDAAWFAYWGQGTLVTVSS VL: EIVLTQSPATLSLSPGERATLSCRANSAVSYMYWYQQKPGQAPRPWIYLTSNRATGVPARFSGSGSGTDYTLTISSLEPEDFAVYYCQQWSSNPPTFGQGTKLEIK
classLabel: 1 (yes)

binder: CP08B06/Vκ8 S29A (antibody, IgG4, V domains shown, IgG4 (S241P), kappa) VH: EVQLLESGGGLVQPGGSLRLSCAASGFSFNSHAISWVRQAPGKGLEWVATISSGGTYTYYPDSVKGRFTISRDNSKNTLYLQMNSLKAEDTAMYYCARHDFDYDAAWFAYWGQGTLVTVSS VL: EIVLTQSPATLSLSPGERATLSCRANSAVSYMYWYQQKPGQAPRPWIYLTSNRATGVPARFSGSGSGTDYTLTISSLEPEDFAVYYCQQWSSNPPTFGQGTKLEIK
classLabel: 0 (no)

binder: VH1/Vκ8 S29A (antibody, IgG4, V domains shown, IgG4 (S241P), kappa; also called Parent; Parent (VH1/Vκ8 S29A)) VH: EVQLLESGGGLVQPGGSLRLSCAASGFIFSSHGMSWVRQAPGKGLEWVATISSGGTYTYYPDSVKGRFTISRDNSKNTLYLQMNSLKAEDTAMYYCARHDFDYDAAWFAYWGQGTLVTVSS VL: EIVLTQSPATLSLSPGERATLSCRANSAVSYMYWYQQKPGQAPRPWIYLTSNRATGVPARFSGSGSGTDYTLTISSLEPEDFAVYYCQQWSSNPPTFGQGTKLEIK
classLabel: 0 (no)
